- Target System: MMP13 (Homo sapiens)
- Procedure Text: MMP13 inhibition (Table 1)
- Type: biochemical
- Setup Conditions: @ 5 μM; read-out: percentage inhibition MMP13
Reported Endpoint: inhibition at 5 µM (%)
# number only, unit % dropped from output

Molecule	Readout Unit	inhibition at 5 µM
O=CN(O)C(CS(=O)(=O)N1CCc2ccccc2C1)C1CC1 (stereo not drawn) [Example 4]	%	80
COc1cc2c(cc1OC)CN(S(=O)(=O)CC(CCc1ccccc1)N(O)C=O)CC2 (stereo not drawn) [Example 12]	%	48
CC(C)(C(CS(=O)(=O)N1CCc2ccccc2C1)N(O)C=O)N1CCOCC1 (stereo not drawn) [Example 8]	%	41
COc1ccc(C(CS(=O)(=O)N2CCc3ccccc3C2)N(O)C=O)cn1 (stereo not drawn) [Example 13]	%	96
O=CN(O)C(CCc1ccccc1)CS(=O)(=O)N1Cc2ccccc2C1 (stereo not drawn) [Example 6]	%	94

Next:
**Q:** Tell me inhibition at 5 µM reported for O=CN(O)C(CS(=O)(=O)N1CCc2ccccc2C1)c1cccs1 (stereo not drawn) [Example 5]
**A:** 97

----------
- Target System: 92 kDa gelatinase (MMP-9) (Homo sapiens, UniProt P14780)
- Sequence (P14780 107-707 limits assumed): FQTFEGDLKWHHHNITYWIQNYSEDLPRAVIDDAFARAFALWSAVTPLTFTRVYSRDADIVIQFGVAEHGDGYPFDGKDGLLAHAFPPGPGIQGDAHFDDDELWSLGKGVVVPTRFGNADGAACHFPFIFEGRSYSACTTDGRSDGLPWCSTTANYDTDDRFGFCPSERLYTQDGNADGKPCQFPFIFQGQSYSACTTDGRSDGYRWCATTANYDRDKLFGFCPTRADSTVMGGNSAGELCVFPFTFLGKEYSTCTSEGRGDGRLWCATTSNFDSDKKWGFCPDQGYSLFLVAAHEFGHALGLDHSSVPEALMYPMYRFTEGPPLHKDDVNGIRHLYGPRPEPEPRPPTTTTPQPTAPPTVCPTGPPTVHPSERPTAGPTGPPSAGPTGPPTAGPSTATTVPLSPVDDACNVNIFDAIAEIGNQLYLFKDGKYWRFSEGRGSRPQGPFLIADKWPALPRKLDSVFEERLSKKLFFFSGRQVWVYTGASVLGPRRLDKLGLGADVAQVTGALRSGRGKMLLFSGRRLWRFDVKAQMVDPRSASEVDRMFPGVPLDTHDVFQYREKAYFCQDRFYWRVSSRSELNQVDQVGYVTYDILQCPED
- Procedure Text: MMP-9 enzyme inhibition assay (coumarin-labeled peptide substrate)
- Type: biochemical
- Setup Conditions: @ 5 μM; read-out: percentage inhibition MMP9
Outcome label depends on inhibition at 5 µM relative to 30%: at/above gives YES, below gives NO.

Compound	Group Label
O=CN(O)[C@H](CS(=O)(=O)N1CCc2ccc(C(F)(F)F)cc2C1)[C@H]1CCCO1 [Example 27]	NO
O=CN(O)C(CS(=O)(=O)N1CCc2ccc(-c3ccccc3)cc2C1)C1CCCC1 (stereo not shown) [Example 69]	NO
O=CN(O)C(CS(=O)(=O)N1CCc2ccc(Br)cc2C1)C1CCCC1 (stereo not shown) [Example 64]	YES
CC(C)c1ccc2c(c1)CCN(S(=O)(=O)CC(C1CCCC1)N(O)C=O)C2 (stereo not shown) [Example 81]	YES
O=CN(O)C(CS(=O)(=O)N1CCc2ccc(F)cc2C1)C1CCCC1 (stereo not shown) [Example 60]	NO
O=CN(O)C(COCc1ccccc1)CS(=O)(=O)N1CCc2ccc(Cl)cc2C1 (stereo not shown) [Example 58]	YES

**Q:** Please indicate if the recorded inhibition at 5 µM for CCC(CC)C(CS(=O)(=O)N1CCc2ccc(OC)cc2C1)N(O)C=O (stereo not shown) [Example 38] meets or exceeds 30%.
**A:** YES

----------
- Target System: MMP-14 (Homo sapiens)
Reported Endpoint: pIC50
Interpret pIC50 as the negative base-10 log of the concentration measured in mol/L.

**Q:** Retrieve pIC50 on MMP-14 (Homo sapiens); query O=CN(O)C(CCc1ccccc1)CS(=O)(=O)N1Cc2ccccc2C1 (centres unmarked)
**A:** 6.06

----------
- Target System: collagenase (MMP-1) (Homo sapiens, UniProt P03956)
- Sequence (P03956 100-469): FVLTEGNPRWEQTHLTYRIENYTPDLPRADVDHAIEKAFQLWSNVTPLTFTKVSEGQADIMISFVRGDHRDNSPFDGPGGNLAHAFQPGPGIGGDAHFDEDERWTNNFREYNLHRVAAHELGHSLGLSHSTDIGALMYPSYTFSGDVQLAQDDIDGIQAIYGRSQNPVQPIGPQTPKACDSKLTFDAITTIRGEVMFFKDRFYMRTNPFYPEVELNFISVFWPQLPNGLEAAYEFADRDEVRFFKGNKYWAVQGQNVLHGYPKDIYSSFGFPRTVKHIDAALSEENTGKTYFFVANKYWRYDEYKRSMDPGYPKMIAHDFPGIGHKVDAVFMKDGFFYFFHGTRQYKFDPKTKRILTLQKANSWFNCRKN
- Procedure Text: MMP-1 enzyme inhibition assay (coumarin-labelled peptide substrate)
- Type: biochemical
- Setup Conditions: @ 5 μM; read-out: percentage inhibition MMP1
Reported Endpoint: inhibition at 5 µM
Remember to follow the number with its unit.

Compound	Test Result
O=CN(O)C(CS(=O)(=O)N1CCc2cc(Cl)c(Cl)cc2C1)C1CCCC1 (centres unmarked)	17%

**Q:** Tell me inhibition at 5 µM reported for O=CN(O)C(CS(=O)(=O)N1CCc2ccccc2C1)c1ccsc1 (centres unmarked)
**A:** 31%

**Q:** Tell me inhibition at 5 µM reported for CC(C)(C)OC(=O)N1CCC[C@@H]1[C@@H](CS(=O)(=O)N1CCc2cc(Cl)c(Cl)cc2C1)N(O)C=O (racemic)
**A:** 9%

**Q:** Tell me inhibition at 5 µM reported for CC(C)(C)CC(CS(=O)(=O)N1CCc2cc(C(F)(F)F)ccc2C1)N(O)C=O (centres unmarked)
**A:** 53%

**Q:** Tell me inhibition at 5 µM reported for CC(C)(C)CC(CS(=O)(=O)N1CCc2cc(Cl)c(Cl)cc2C1)N(O)C=O (centres unmarked)
**A:** 29%

**Q:** Tell me inhibition at 5 µM reported for CCC(CC)C(CS(=O)(=O)N1CCc2ccc(OC)cc2C1)N(O)C=O (centres unmarked)
**A:** 17%

**Q:** Tell me inhibition at 5 µM reported for CC(C)C(CS(=O)(=O)N1CCc2cc(Cl)c(Cl)cc2C1)N(O)C=O (centres unmarked)
**A:** 25%

**Q:** Tell me inhibition at 5 µM reported for O=CN(O)C(CS(=O)(=O)N1Cc2ccc(F)cc2C1)C1CCCC1 (centres unmarked)
**A:** 25%

**Q:** Tell me inhibition at 5 µM reported for CCC(CC)C(CS(=O)(=O)N1CCc2cc(C(F)(F)F)ccc2C1)N(O)C=O (centres unmarked)
**A:** 36%

**Q:** Tell me inhibition at 5 µM reported for CCC(CC)C(CS(=O)(=O)N1CCc2ccc(Br)cc2C1)N(O)C=O (centres unmarked)
**A:** 41%

**Q:** Tell me inhibition at 5 µM reported for O=CN(O)[C@H](CS(=O)(=O)N1Cc2ccc(F)cc2C1)[C@H]1CCCO1
**A:** 94%

**Q:** Tell me inhibition at 5 µM reported for CCC#CCC(C)(C)C(CS(=O)(=O)N1CCc2cc(C(F)(F)F)ccc2C1)N(O)C=O (centres unmarked)
**A:** 8%

**Q:** Tell me inhibition at 5 µM reported for O=CN(O)C(CS(=O)(=O)N1CCc2ccccc2C1)c1cccnc1 (centres unmarked)
**A:** 8%

**Q:** Tell me inhibition at 5 µM reported for COc1cc2c(cc1OC)CN(S(=O)(=O)CC(N(O)C=O)C(C)(C)C)CC2 (centres unmarked)
**A:** 0%

**Q:** Tell me inhibition at 5 µM reported for CCCOc1ccc2c(c1)CN(S(=O)(=O)CC(CC(C)(C)C)N(O)C=O)CC2 (centres unmarked)
**A:** 2%

**Q:** Tell me inhibition at 5 µM reported for O=CN(O)C(CS(=O)(=O)N1CCc2cc(C(F)(F)F)ccc2C1)[C@H]1CCCO1 (some centres unmarked)
**A:** 40%

**Q:** Tell me inhibition at 5 µM reported for CC(C)c1ccc2c(c1)CCN(S(=O)(=O)C[C@H]([C@H]1CCCO1)N(O)C=O)C2
**A:** 2%

----------
- Target System: MMP-14 (Homo sapiens, UniProt P50281)
- Procedure Text: MMP-14 enzyme inhibition assay (coumarin-labelled peptide substrate)
- Type: biochemical
- Setup Conditions: @ 5 μM; read-out: percentage inhibition MMP14
# reported inhibition at 5 µM; entries follow
# number only, unit % dropped from output

Molecule	Readout Unit	inhibition at 5 µM
CC(C)c1ccc2c(c1)CCN(S(=O)(=O)CC(C1CCCC1)N(O)C=O)C2 (stereo not shown) [Example 81]	%	87
CC(C)(C(CS(=O)(=O)N1CCc2ccccc2C1)N(O)C=O)N1CCOCC1 (stereo not shown) [Example 8]	%	8
O=CN(O)[C@@H](CS(=O)(=O)N1CCc2ccc(C(F)(F)F)cc2C1)[C@H]1CCCO1 [Example 32]	%	14

**Q:** Tell me inhibition at 5 µM reported for O=CN(O)C(CS(=O)(=O)N1CCc2ccc(F)cc2C1)C1CCCC1 (stereo not shown) [Example 60]
**A:** 16

----------
- Target System: collagenase (MMP-1) (Homo sapiens)
- Procedure Text: MMP-1 enzyme inhibition assay (coumarin-labelled peptide substrate)
- Format: biochemical
- Setup Conditions: @ 5 μM; read-out: percentage inhibition MMP1
Outcome label depends on inhibition at 5 µM relative to 6%: at/above gives criterion met, below gives criterion not met.

Example entries and their recorded answers appear below.
Molecule	Group Label
CC(C)(C)CC(CS(=O)(=O)N1CCc2ccc(Cl)cc2C1)N(O)C=O (stereo not drawn)	criterion met
CC(C)CC(CS(=O)(=O)N1CCc2ccc(Br)cc2C1)N(O)C=O (stereo not drawn)	criterion met

**Q:** Please indicate if the recorded inhibition at 5 µM for CC(C)c1ccc2c(c1)CCN(S(=O)(=O)CC([C@H]1COC(C)(C)O1)N(O)C=O)C2 (stereo partly drawn) meets or exceeds 6%.
**A:** criterion met

**Q:** Please indicate if the recorded inhibition at 5 µM for COc1ccc2c(c1)CN(S(=O)(=O)CC(CCC1CCCO1)N(O)C=O)CC2 (stereo not drawn) meets or exceeds 6%.
**A:** criterion not met

**Q:** Please indicate if the recorded inhibition at 5 µM for CC1(C)OC[C@H](C(CS(=O)(=O)N2CCc3ccc(C(F)(F)F)cc3C2)N(O)C=O)O1 (stereo partly drawn) meets or exceeds 6%.
**A:** criterion met

**Q:** Please indicate if the recorded inhibition at 5 µM for CCCCCC(CS(=O)(=O)N1CCc2ccccc2C1)N(O)C=O (stereo not drawn) meets or exceeds 6%.
**A:** criterion met

**Q:** Please indicate if the recorded inhibition at 5 µM for O=CN(O)C(CS(=O)(=O)N1CCc2ccc(Cl)cc2C1)C1CCCC1 (stereo not drawn) meets or exceeds 6%.
**A:** criterion met

These measurements were taken from patent US7879876B2.
